Origin of the recorded values: PubChem BioAssay AID1996

- Test Context: buffer; pH 7.4; 200.0 µM

[
  {
    "Molecule": "CC(C)(C)C(=O)Oc1cccc(Nc2ncnc3ccccc23)c1",
    "solubility kinetic": "34.1 µg/mL"
  },
  {
    "Molecule": "CN1CCN(NC(=O)c2ccc(Cl)s2)CC1",
    "solubility kinetic": "> 39 µg/mL"
  },
  {
    "Molecule": "COc1cc2c(cc1OC)CN(C(=O)CCC(=O)c1ccc(F)cc1)CC2",
    "solubility kinetic": "> 55.7 µg/mL"
  },
  {
    "Molecule": "CCOc1ccc(N(C(=O)C2CCCO2)C2C=CS(=O)(=O)C2)cc1 (stereo unspecified)",
    "solubility kinetic": "> 52.7 µg/mL"
  },
  {
    "Molecule": "COC(=O)n1c(=O)oc2ccc(S(=O)(=O)N3CCCCC3)cc21",
    "solubility kinetic": "> 51.1 µg/mL"
  },
  {
    "Molecule": "CCc1ccc(NC(=O)COC(=O)CCC2CCCC2)cc1",
    "solubility kinetic": "7.9 µg/mL"
  }
]

* * *

Listing of entries alongside the reported solubility kinetic.
- Test Context: buffer; pH 7.4; 200.0 µM
Assay Readout: solubility kinetic (µg/mL)

[
  {
    "Compound": "Cc1c(C)n(CC(O)CN2CCN(C)CC2)c2ccccc12 (configuration not stated)",
    "Readout Units": "µg/mL",
    "Value Prefix": "=",
    "Val": 43.3
  },
  {
    "Compound": "COc1ccc(CCC(=O)Nc2nccs2)cc1OC",
    "Readout Units": "µg/mL",
    "Value Prefix": ">",
    "Val": 43.9
  },
  {
    "Compound": "CCOc1ccc(-n2ccnc(SCC(=O)NC3CCCC3)c2=O)cc1",
    "Readout Units": "µg/mL",
    "Value Prefix": "=",
    "Val": 32.6
  },
  {
    "Compound": "Br.CC(C)(C)c1cc(C2=CSC3=NCCN23)cc(C(C)(C)C)c1O",
    "Readout Units": "µg/mL",
    "Value Prefix": "=",
    "Val": 10.7
  },
  {
    "Compound": "CCN(Cc1cc2cc(C)ccc2[nH]c1=O)C(=O)c1cccc([N+](=O)[O-])c1",
    "Readout Units": "µg/mL",
    "Value Prefix": "=",
    "Val": 11.5
  },
  {
    "Compound": "Cc1ccc(-n2c(/C=C/c3ccccn3)nc3ccccc3c2=O)cc1",
    "Readout Units": "µg/mL",
    "Value Prefix": "=",
    "Val": 0.6
  },
  {
    "Compound": "O=c1nc(Nc2ccccc2)oc2ccccc12",
    "Readout Units": "µg/mL",
    "Value Prefix": "=",
    "Val": 26.8
  },
  {
    "Compound": "CCOC(=O)/C(=C/Nc1ccc(F)c(F)c1)[N+](=O)[O-]",
    "Readout Units": "µg/mL",
    "Value Prefix": ">",
    "Val": 40.8
  },
  {
    "Compound": "CC1CCN(S(=O)(=O)c2cccc(S(=O)(=O)N3CCCC3)c2)CC1",
    "Readout Units": "µg/mL",
    "Value Prefix": "=",
    "Val": 28.1
  },
  {
    "Compound": "Cc1nc2ccccc2c(=O)n1NC(=O)c1ccccc1F",
    "Readout Units": "µg/mL",
    "Value Prefix": ">",
    "Val": 44.6
  },
  {
    "Compound": "CC(=O)Oc1ccc(C(=O)Nc2ccc3c(c2)OCCO3)cc1",
    "Readout Units": "µg/mL",
    "Value Prefix": "=",
    "Val": 38.9
  },
  {
    "Compound": "O=C(O)CNc1nc(-c2ccccc2)nc2c1oc1ccccc12",
    "Readout Units": "µg/mL",
    "Value Prefix": ">",
    "Val": 47.9
  }
]
